Data provenance: paper PMC4840014

target: nucleolin (NCL) (human (human recombinant protein), UniProt P19338 1-710); assay: SPR; HEPES-KCl; SPR (Biacore T100, CM5 chip), HEPES-KCl buffer (composition, pH and temperature not given), oligos 15.6-1000 nM, heated 95 C 5 min and cooled to room temperature, 20 uL/min, 120 s contact and dissociation, 1 M KCl regeneration; settings: G4, described as dimeric
Sequence (P19338 whole entry): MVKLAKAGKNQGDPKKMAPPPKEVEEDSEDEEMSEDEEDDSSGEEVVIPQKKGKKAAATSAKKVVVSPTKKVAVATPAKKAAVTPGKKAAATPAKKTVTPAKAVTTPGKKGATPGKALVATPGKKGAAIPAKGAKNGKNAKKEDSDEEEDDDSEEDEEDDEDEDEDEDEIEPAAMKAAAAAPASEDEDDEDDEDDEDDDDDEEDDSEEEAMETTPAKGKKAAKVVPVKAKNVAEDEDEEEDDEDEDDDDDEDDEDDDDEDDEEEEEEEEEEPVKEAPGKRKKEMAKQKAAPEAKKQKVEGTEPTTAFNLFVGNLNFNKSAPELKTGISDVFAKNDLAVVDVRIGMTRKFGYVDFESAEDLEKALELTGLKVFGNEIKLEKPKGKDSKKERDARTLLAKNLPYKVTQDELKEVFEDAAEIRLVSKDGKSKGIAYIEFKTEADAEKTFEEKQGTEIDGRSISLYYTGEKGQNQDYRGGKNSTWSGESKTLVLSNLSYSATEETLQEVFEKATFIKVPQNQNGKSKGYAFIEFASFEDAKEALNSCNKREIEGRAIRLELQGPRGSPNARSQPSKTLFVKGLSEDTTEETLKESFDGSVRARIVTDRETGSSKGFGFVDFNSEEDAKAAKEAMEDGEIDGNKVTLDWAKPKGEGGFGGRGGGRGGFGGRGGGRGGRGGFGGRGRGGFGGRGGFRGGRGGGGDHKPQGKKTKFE
endpoint: pKd
By convention, pKd is the negative base-10 log of a molar concentration.

Prompt: Entry GGTGGTGGTGGTTGTGGTGGTGGTGG (structured_DNA) [AS1411] needs its pKd filled in; supply it.
Completion: 7.47
